system: Mtb 8666/2010; assay: microbe, parasite or virus in culture; assay type: cell-based; conditions: Mycobacterium tuberculosis, 8666/2010, 336 h, read-out: MIC Mtb 8666/2010
ASSAY READOUT: MIC (µM)

[[record]]
molecule = "O=[N+]([O-])c1cc(-c2nnc(NCc3ccc(Cl)cc3Cl)o2)cc([N+](=O)[O-])c1 [Compound 7d]"
target_or_system = "Mtb 8666/2010"
assay_readout = "MIC"
measured_number = 0.06

[[record]]
molecule = "CCCCCCCCCCCCNc1nnc(-c2cc([N+](=O)[O-])cc([N+](=O)[O-])c2)o1 [Compound 5l]"
target_or_system = "Mtb 8666/2010"
assay_readout = "MIC"
measured_number = 0.25

[[record]]
molecule = "CCCCCCCCCNC(=O)NNC(=O)c1cc([N+](=O)[O-])cc([N+](=O)[O-])c1 [Compound 4i]"
target_or_system = "Mtb 8666/2010"
assay_readout = "MIC"
measured_number = 1

[[record]]
molecule = "CCCCCCCCNc1nnc(-c2cc([N+](=O)[O-])cc([N+](=O)[O-])c2)o1 [Compound 5h]"
target_or_system = "Mtb 8666/2010"
assay_readout = "MIC"
measured_number = 0.06

[[record]]
molecule = "CCCCCNc1nnc(-c2cc([N+](=O)[O-])cc([N+](=O)[O-])c2)o1 [Compound 5e]"
target_or_system = "Mtb 8666/2010"
assay_readout = "MIC"
measured_number = 0.125

[[record]]
molecule = "CCCCCCCCCCCCNC(=S)NNC(=O)c1cc([N+](=O)[O-])cc([N+](=O)[O-])c1 [Compound 4s]"
target_or_system = "Mtb 8666/2010"
assay_readout = "MIC"
measured_number = 1

